TEST_SYSTEM: FXR (Homo sapiens)
Sequence (Q96RI1 1-486): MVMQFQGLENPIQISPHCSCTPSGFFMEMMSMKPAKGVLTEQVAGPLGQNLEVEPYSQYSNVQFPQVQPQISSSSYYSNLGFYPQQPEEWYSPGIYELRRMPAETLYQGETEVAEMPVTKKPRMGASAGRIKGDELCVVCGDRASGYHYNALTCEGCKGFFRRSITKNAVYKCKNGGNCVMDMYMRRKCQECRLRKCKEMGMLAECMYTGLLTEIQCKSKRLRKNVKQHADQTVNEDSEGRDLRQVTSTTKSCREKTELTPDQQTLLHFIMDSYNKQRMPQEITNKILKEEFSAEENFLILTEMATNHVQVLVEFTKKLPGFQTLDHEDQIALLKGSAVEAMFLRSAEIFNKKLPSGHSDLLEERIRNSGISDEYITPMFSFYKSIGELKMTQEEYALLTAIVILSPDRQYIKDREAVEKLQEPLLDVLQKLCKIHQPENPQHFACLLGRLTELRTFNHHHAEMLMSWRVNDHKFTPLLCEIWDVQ
TEST_SUMMARY: FXR Transactivation Assay (pBIND-FXR / pGL4.35 luciferase reporter in HEK293T)
PROTOCOL_CONDITIONS: HEK293T cells
Description: FXR Transactivation Assay pGL4.35 [luc2P/9XGAL4 UAS/Hygro] DMEM medium, high glucose Fetal Bovine Serum (FBS, heat-inactivated) Penicillin-Streptomycin (10000 U/ml, 100 ml) DMEM, High Glucose, HEPES, no Phenol Red Opti-MEM® I Reduced Serum Medium Steady-Glo™ Luciferase Assay System TransIT-293 Transfection Reagent GW4064 as a positive control • 1. […] Record the luminescence value on Envision 2104 plate reader. • 8. […] Read the plate at wavelengths of 520 nm and 495 nm on Envision 2104 plate reader. • 8. […]
Recorded EC50, one value per entry.
PROPERTY: EC50

1) Cc1ccc(C(=O)O)cc1C1CC1(C#N)c1ccc(OCc2c(-c3c(Cl)cccc3Cl)noc2C2CC2)cc1Cl (stereo not shown)    10 to 100 nM
2) CC1(c2cncc(C(=O)O)c2)CC1c1ccc(OCc2c(-c3c(Cl)cncc3Cl)noc2C2CC2)cc1Cl (stereo not shown)    101 to 400 nM
3) CC(C)c1onc(-c2c(Cl)cccc2Cl)c1COc1ccc(C2CC2(C)c2cccc(C(=O)O)c2)c(Cl)c1 (stereo not shown)    101 to 400 nM
4) CC1(c2cncc(C(=O)NCC(=O)O)c2)CC1c1ccc(OCc2c(-c3c(Cl)cccc3Cl)noc2C2CC2)cc1Cl (stereo not shown)    401 to 5000 nM
5) COc1cc(C(=O)O)cc2sc(C3(C)CC3c3ccc(OCc4c(-c5c(Cl)cccc5Cl)noc4C(C)C)cc3Cl)nc12 (stereo not shown)    101 to 400 nM
6) CC1(c2ccnc(C(=O)O)c2)CC1c1ccc(OCc2c(-c3c(Cl)cccc3Cl)noc2C2CC2)cc1Cl (stereo not shown)    401 to 5000 nM
7) COc1cc(C(=O)O)cc2sc(C3CC3(C#N)c3ccc(OCc4c(-c5c(Cl)cccc5Cl)noc4C4CC4)cc3Cl)nc12 (stereo not shown)    101 to 400 nM
